Parameter: %Inh. Scope: all listed entries.
Tested on: SRC
STATED_CONDITIONS: concentration: 1 μM, replicates: in singlicate; n = 1;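 further: KINOMEscan kinase panel screen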
Unit % implied. Number only.

Request the reported %Inh associated with "COc1cc2nccc(Nc3ccc(NC(=O)c4ccc(C)cc4)c(O)c3)c2cc1OC.Cl"
20

Another molecule to look at: "Cc1ccc(NC(=O)Nc2cccc(Cl)c2)cc1-c1ccc(C(=O)Nc2ccncc2)cc1"
0

Another molecule to look at: "CN(C)CCN(C)C(=O)c1cc(-c2ccncc2)c(-c2ccc(Cl)c(O)c2)o1.Cl.Cl"
11

Another molecule to look at: "COC(=O)c1c(-c2ccccc2)c2cc(C(=O)O)ccc2c(=O)n1Cc1ccccc1"
0

Another molecule to look at: "Cc1c(Cn2ccn3c(=O)cc(N4CCOCC4)nc23)cccc1C(F)(F)F"
0

Another molecule to look at: "Fc1cc(Cl)ccc1Nc1ccnc2cc(I)ccc12"
0

Another molecule to look at: "Nc1nc(-c2nccs2)c(-c2ccnc3ccccc23)s1"
0

Another molecule to look at: "O=c1cc(N2CCOCC2)nc2n(Cc3cccc(Cl)c3Cl)ccn12"
3

Another molecule to look at: "Cc1cccc(-c2nc(Nc3ccncc3)c3ccccc3n2)n1"
20

Another molecule to look at: "Cc1cccc(-c2nc(Nc3cccc(C(N)=O)c3)c3ccccc3n2)n1"
0

Another molecule to look at: COc1cccc(NC(=O)NC2CCN(c3ccnc(Nc4ccc(F)cc4)n3)C2)c1 (stereo not drawn)
0

Another molecule to look at: "Cc1csc(-c2nc(Nc3ccncc3)c3ccccc3n2)n1"
8

Another molecule to look at: O=C(Nc1ccc2c(c1)OCO2)NC1CCN(c2ccnc(Nc3ccc(F)cc3)n2)C1 (stereo not drawn)
0

Another molecule to look at: "C[C@@H]1CCCCN1c1cc(-c2ccc3c(N)n[nH]c3c2)nc(N)n1"
0

Another molecule to look at: "Cl.Oc1ccc(-c2nc(-c3ccccc3)[nH]c2-c2ccncc2)cc1"
33

Another molecule to look at: "Cc1ccc(NC(=O)Nc2cc(C(C)(C)C)nn2-c2ccccc2)cc1"
2

---

Tested on: RIOK1
STATED_CONDITIONS: concentration: 1 μM, replicates: in singlicate; n = 1
Binary classification by %Inh, with 20% as an inclusive lower bound for 1; all other cases are 0.

Answered cases to consult:
Quick check, %Inh >= 20%? "Cc1ccccc1-n1cnc2c(N)ncnc21"
0

Another compound to look at: "Cc1ccc(NC(=O)Nc2cccc(Cl)c2)cc1-c1ccc(C(=O)Nc2ccncc2)cc1"
1

Another compound to look at: "NC(=O)c1nnc2ccccc2c1N"
1

Another compound to look at: "Cc1cccc(-c2nc(Nc3ccc4[nH]ncc4c3)c3ccccc3n2)n1"
1

Another compound to look at: "Fc1cccc(COc2nnc(-c3ccc4c(c3)CCO4)o2)c1"
0

Another compound to look at: "Nc1ncnc2[nH]c(-c3ccccc3)nc12"
0

Another compound to look at: "CC(=O)Nc1nc2cnc(Nc3cc(NC(=O)c4cccc(CCC#N)c4)ccc3C)nc2s1"
0

Another compound to look at: "Nc1nc(-c2nccs2)c(-c2ccnc3ccccc23)s1"
1

Continuing:
Quick check, %Inh >= 20%? "O=C(Nc1n[nH]c2nc(-c3nccs3)c(Br)cc12)C1CCCC1"
0

Another compound to look at: CC1=C(C(=O)Nc2cc3cn[nH]c3cc2F)C(c2ccc(C(F)(F)F)cc2)CC(=O)N1 (stereo not drawn)
1

Another compound to look at: "Cc1ccc(C(=O)Nc2ccc(Nc3ccnc4cc(-c5ccccn5)ccc34)cc2O)cc1.Cl"
0

Another compound to look at: "O=C(Nc1ccccc1)Nc1cccc(Oc2ccc3nccn3n2)c1"
1

---

Test system: DDR1
STATED_CONDITIONS: concentration: 1 μM, replicates: in singlicate; n = 1
PROPERTY_MEASURED: %Inh (%)
Unit % implied. Number only.

Request the reported %Inh associated with Nc1nc(-c2nccs2)c(-c2ccnc3ccccc23)s1 [GW693542]
9

Another molecule to look at: "Cn1ccc2ncnc(Oc3ccc(NC(=O)Nc4ccccc4)cc3)c21"
63

Another molecule to look at: Cc1c(O)cccc1Nc1ccnc2ccc(C(F)(F)F)cc12.Cl [GW466413]
16

With those in mind, consider the next molecule.
Request the reported %Inh associated with Cc1cccc(-c2nc(C)cc(Nc3ccncc3)n2)n1 [GSK257997]
0

---

Tested on: DDR1
STATED_CONDITIONS: concentration: 1 μM, replicates: in singlicate; n = 1
PROPERTY_MEASURED: %Inh
Record the result as a number with its unit.

Request the reported %Inh associated with "O=C(O)COc1ncnc2cc(-c3ccc4[nH]ncc4c3)sc12"
0%

Another compound to look at: O=C(Nc1ccc2c(c1)OCO2)NC1CCN(c2ccnc(Nc3ccc(F)cc3)n2)C1 (stereo not drawn)
0%

Another compound to look at: "O=C(Nc1n[nH]c2nc(-c3nccs3)c(Br)cc12)C1CCCC1"
0%

---

Parameter: %Inh. Scope: all listed entries.
Tested on: WNK2
STATED_CONDITIONS: concentration: 1 μM, replicates: in singlicate; n = 1
Unit % implied. Number only.

Below are worked cases with known answers.
Request the reported %Inh associated with "O=C(Nc1n[nH]c2nc(-c3nccs3)c(Br)cc12)C1CCCC1"
0

Another compound to look at: "COc1ccccc1CNC(=O)c1cc(C(=O)c2ccccc2C)c[nH]1"
12

Another compound to look at: "O=C1NC(=O)C(N2CCc3ccccc32)=C1c1ccccc1Cl"
2

Another compound to look at: "Cc1csc(-c2nc(Nc3ccncc3)c3ccccc3n2)n1"
0

Another compound to look at: "Cc1cc(NCC(c2ccccc2)c2ccccc2)nc(NCc2ccc(C(F)(F)F)cc2)n1"
0

Continuing:
Request the reported %Inh associated with "Cc1cccc(-c2nc(Nc3cccc(C(N)=O)c3)c3ccccc3n2)n1"
0

Another compound to look at: CCCc1ccc(S(=O)(=O)NC2CCN(c3ccnc(Nc4ccc(F)cc4)n3)C2)cc1 (centres unmarked)
0

Another compound to look at: "COc1ccc(Nc2nccc(NCCNC(=O)Nc3ccccc3F)n2)cc1"
0

Another compound to look at: "O=S(=O)(c1ccc(-c2ccnc3[nH]ccc23)cc1)N1CCCC1"
7

Another compound to look at: "CS(=O)(=O)c1ccc(-c2nc3n(c2-c2ccncc2)CCC3)cc1"
0

Another compound to look at: "Cc1cccc(-c2nc(Nc3ccc4[nH]ncc4c3)c3ccccc3n2)n1"
51

---

Test system: FGFR4
STATED_CONDITIONS: concentration: 1 μM, replicates: in singlicate; n = 1
Binary classification by %Inh, with 6% as an inclusive lower bound for Condition met; all other cases are Condition not met.

Answered cases to consult:
Quick check, %Inh >= 6%? "COc1cc2ncnc(Nc3ccc4nc(-c5ccccc5)[nH]c4c3)c2cc1OC.Cl"
Condition met

Another molecule to look at: "NC(=O)c1nnc2ccccc2c1N"
Condition not met

Another molecule to look at: "Cc1ccc(NC(=O)Nc2cc(C(C)(C)C)nn2-c2ccccc2)cc1"
Condition met

Another molecule to look at: "Nc1ncnc2[nH]c(-c3ccccc3)nc12"
Condition not met

Another molecule to look at: "Cl.Oc1ccc(-c2nc(-c3ccccc3)[nH]c2-c2ccncc2)cc1"
Condition met

Another molecule to look at: COc1cccc(NC(=O)NC2CCN(c3ccnc(Nc4ccc(F)cc4)n3)C2)c1 (stereo not shown)
Condition not met

Another molecule to look at: O=C(Nc1ccc2c(c1)OCO2)NC1CCN(c2ccnc(Nc3ccc(F)cc3)n2)C1 (stereo not shown)
Condition met

Another molecule to look at: "CCn1c(-c2cccnc2O)nc2cnccc21"
Condition not met

Another molecule to look at: "Cl.NC(=O)c1cccc(Nc2nccc(Nc3ccc(Oc4cccc(Cl)c4)c(Cl)c3)n2)c1"
Condition not met

Another molecule to look at: "CC(C)(C)c1ccc(C(=O)Nc2cn3cc(-c4cccnc4)ccc3n2)cc1"
Condition not met

Continuing:
Quick check, %Inh >= 6%? "Cn1cncc1-c1ccc2ncnc(Nc3ccc(OCc4ccccc4)cc3)c2c1"
Condition met

Another molecule to look at: COc1cc(Nc2nccc(N3CCC(NC(=O)Nc4cc(C)ccc4C)C3)n2)cc(OC)c1OC (stereo not shown)
Condition not met

Another molecule to look at: "Fc1cccc(COc2nnc(-c3ccc4c(c3)CCO4)o2)c1"
Condition not met

---

Parameter: %Inh. Scope: all listed entries.
Tested on: WNK3
STATED_CONDITIONS: concentration: 1 μM, replicates: in singlicate; n = 1
Unit % implied. Number only.

Which measured %Inh belongs to "COc1cc2nccc(Nc3ccc(NC(=O)c4ccc(C)cc4)c(O)c3)c2cc1OC.Cl" , tested on WNK3?
14

Another compound to look at: "Cn1ccc2ncnc(Oc3ccc(NC(=O)Nc4ccccc4)cc3)c21"
0

Another compound to look at: CC1=C(C(=O)Nc2cc3cn[nH]c3cc2F)C(c2ccc(C(F)(F)F)cc2)CC(=O)N1 (stereo not drawn)
3

Another compound to look at: "COC(=O)c1c(-c2ccccc2)c2cc(OC)ccc2c(=O)n1Cc1ccccc1"
0

Continuing:
Which measured %Inh belongs to "Fc1cc(Cl)ccc1Nc1ccnc2cc(I)ccc12" , tested on WNK3?
29

Another compound to look at: "Cc1cccc(-c2nc(C)cc(Nc3ccncc3)n2)n1"
6
